Reported values of IC50 for individual entries
# assayedTarget: Squalene synthase (Rattus norvegicus, UniProt Q02769)
# Sequence (Q02769 whole entry): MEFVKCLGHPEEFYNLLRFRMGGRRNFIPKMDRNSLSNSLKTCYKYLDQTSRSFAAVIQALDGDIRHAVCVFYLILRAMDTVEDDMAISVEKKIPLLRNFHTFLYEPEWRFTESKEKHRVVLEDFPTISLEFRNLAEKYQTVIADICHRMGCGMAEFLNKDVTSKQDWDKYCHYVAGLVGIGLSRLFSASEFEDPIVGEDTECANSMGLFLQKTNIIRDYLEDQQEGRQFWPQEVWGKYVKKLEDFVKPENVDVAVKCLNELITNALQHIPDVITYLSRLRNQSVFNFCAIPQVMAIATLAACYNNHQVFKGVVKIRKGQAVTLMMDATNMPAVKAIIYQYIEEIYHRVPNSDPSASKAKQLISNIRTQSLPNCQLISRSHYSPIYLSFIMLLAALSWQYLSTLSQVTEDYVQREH
# method: Tested for inhibition against squalene synthase enzyme in rat liver
readoutName: IC50 (nM)

C=C(CCC12OC(C(=O)O)C(O)(C(=O)O)C(C(=O)O)(O1)[C@H](OC(=O)NCc1ccccc1)[C@H]2O)[C@@H](OC(C)=O)[C@H](C)Cc1ccccc1 (some centres not stated) | 1.6
C=C(CCC12OC(C(=O)O)C(O)(C(=O)O)C(C(=O)O)(O1)[C@H](OC(=O)OCC)[C@H]2O)[C@@H](OC(C)=O)[C@H](C)Cc1ccccc1 (some centres not stated) | 9.2
C=C(CCC12OC(C(=O)O)C(O)(C(=O)O)C(C(=O)O)(O1)[C@H](OC(=O)NC(C)C)[C@H]2O)[C@@H](OC(C)=O)[C@H](C)Cc1ccccc1 (some centres not stated) | 8
C=C(CCC12OC(C(=O)O)C(O)(C(=O)O)C(C(=O)O)(O1)[C@H](OC(=O)NCC1CC1)[C@H]2O)[C@@H](OC(C)=O)[C@H](C)Cc1ccccc1 (some centres not stated) | 17
C=C(C)CC(=O)O[C@@H]1[C@@H](O)C2(CCC(=C)[C@@H](OC(C)=O)[C@H](C)Cc3ccccc3)OC(C(=O)O)C(O)(C(=O)O)C1(C(=O)O)O2 (some centres not stated) | 5.6
C=C(CCC12OC(C(=O)O)C(O)(C(=O)O)C(C(=O)O)(O1)[C@H](OC(=O)[C@@H](C)CC)[C@H]2O)[C@@H](OC(C)=O)[C@H](C)Cc1ccccc1 (some centres not stated) | 18

====

Measured pIC50, listed per entry for reference.
# assayedTarget: Squalene synthase (Rattus norvegicus)
# method: Tested for inhibition against squalene synthase enzyme in rat liver
pIC50: −log10 of the molar value.
readoutName: pIC50

C=C(CCC12OC(C(=O)O)C(O)(C(=O)O)C(C(=O)O)(O1)[C@H](OC(=O)NCCCCCCCCCCCC)[C@H]2O)[C@@H](OC(C)=O)[C@H](C)Cc1ccccc1 (some centres undefined) | 9.77
C=C(CCC12OC(C(=O)O)C(O)(C(=O)O)C(C(=O)O)(O1)[C@H](OC(=O)CCC)[C@H]2O)[C@@H](OC(C)=O)[C@H](C)Cc1ccccc1 (some centres undefined) | 8.04
C=C(CCC12OC(C(=O)O)C(O)(C(=O)O)C(C(=O)O)(O1)[C@H](OC(=O)CC)[C@H]2O)[C@@H](OC(C)=O)[C@H](C)Cc1ccccc1 (some centres undefined) | 7.96
C=C(CCC12OC(C(=O)O)C(O)(C(=O)O)C(C(=O)O)(O1)[C@H](OCCCCCCCCCC)[C@H]2O)[C@@H](OC(C)=O)[C@H](C)Cc1ccccc1 (some centres undefined) | 9.68
C=C(CCC12OC(C(=O)O)C(O)(C(=O)O)C(C(=O)O)(O1)[C@H](OC(=O)NCCCCCCCCCCCCCC)[C@H]2O)[C@@H](OC(C)=O)[C@H](C)Cc1ccccc1 (some centres undefined) | 9.55
CCCC(=O)O[C@@H]1[C@@H](O)C2(CCCCc3cccc4ccccc34)OC(C(=O)O)C(O)(C(=O)O)C1(C(=O)O)O2 (some centres undefined) | 5.74
CCCC(=O)O[C@@H]1[C@@H](O)C2(CCCC[C@H](C)Cc3ccccc3)OC(C(=O)O)C(O)(C(=O)O)C1(C(=O)O)O2 (some centres undefined) | 6.96
C=C(CCC12OC(C(=O)O)C(O)(C(=O)O)C(C(=O)O)(O1)[C@H](OC(=O)OCCCCCCCCCCCC)[C@H]2O)[C@@H](OC(C)=O)[C@H](C)Cc1ccccc1 (some centres undefined) | 9.72
C=C(CCC12OC(C(=O)O)C(O)(C(=O)O)C(C(=O)O)(O1)[C@H](OC(=O)/C=C/[C@@H](C)C[C@@H](C)CC)[C@H]2O)C[C@H](C)Cc1ccccc1 (some centres undefined) | 9.62
C=C(CCC12OC(C(=O)O)C(O)(C(=O)O)C(C(=O)O)(O1)[C@H](OC(=O)OC)[C@H]2O)[C@@H](OC(C)=O)[C@H](C)Cc1ccccc1 (some centres undefined) | 8.46
C=C(CCC12OC(C(=O)O)C(O)(C(=O)O)C(C(=O)O)(O1)[C@H](OC(=O)CC[C@@H](C)C[C@@H](C)CC)[C@H]2O)[C@@H](OC(C)=O)[C@H](C)Cc1ccccc1 (some centres undefined) | 9.72
C=C(CCC12OC(C(=O)O)C(OCCCCCCCCCCCOc3ccccc3)(C(=O)O)C(C(=O)O)(O1)[C@H](O)[C@H]2O)[C@@H](OC(C)=O)[C@H](C)Cc1ccccc1 (some centres undefined) | 8.96
CCCC(=O)O[C@@H]1[C@@H](O)C2(CCCCCCc3ccccc3)OC(C(=O)O)C(O)(C(=O)O)C1(C(=O)O)O2 (some centres undefined) | 6.44
C=C(CCC12OC(C(=O)O)C(O)(C(=O)O)C(C(=O)O)(O1)[C@H](OC)[C@H]2O)[C@@H](OC(C)=O)[C@H](C)Cc1ccccc1 (some centres undefined) | 7.66
